All values here come from paper PMC10397247.

target or test system: T1, 4H3625-AA
T1 chain: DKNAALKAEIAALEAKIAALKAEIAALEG
procedure text: two-hybrid library CCmax;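 also: natural log of median RNA to DNA barcode read ratio; higher means stronger binding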
measurement conditions: mean of both orientations
Note to self: values exactly at -0.2 are Fulfilled. So interaction score at or above -0.2 is Fulfilled, below is Not fulfilled.

### Prompt Determine whether this binder has interaction score no lower than -0.2: DKIAALEAKNAALKAENAALEAEIAALEG [4H2513-AA]
### Response Not fulfilled

### Prompt Decide: is the reported value of interaction score for DEIAALEAKIAALKAEIAALEAKNAALEG [4H327-AA] equal to or greater than -0.2?
### Response Fulfilled

### Prompt I'd appreciate it if you could say whether DEIAALEAKIAALEAENAALEAKIAALKG [4H278-AA] has interaction score at least equal to -0.2.
### Response Fulfilled

### Prompt Would you say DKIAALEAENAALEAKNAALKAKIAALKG [4H2238-AA] shows interaction score at minimum -0.2?
### Response Not fulfilled

### Prompt Could you please find out whether DEIAALEAENAALKAKIAALKAEIAALEG [4H233-AA] has interaction score that meets -0.2 or exceeds it?
### Response Fulfilled

### Prompt Entry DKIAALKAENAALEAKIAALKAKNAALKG [4H2736-AA] : is its interaction score no less than -0.2?
### Response Fulfilled

### Prompt Reported interaction score at or above -0.2? DKIAALKAENAALEAKIAALEAKIAALKG [4H2726-AA]
### Response Fulfilled

### Prompt Confirm if interaction score reported for the binder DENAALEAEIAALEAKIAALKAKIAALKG [4H1070-AA] is -0.2 or above.
### Response Fulfilled

### Prompt Could you please find out whether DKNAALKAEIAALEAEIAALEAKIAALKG [4H3590-AA] has interaction score that meets -0.2 or exceeds it?
### Response Fulfilled

### Prompt Is it the case that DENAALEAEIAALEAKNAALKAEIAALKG [4H1082-AA] has interaction score reaching or exceeding -0.2?
### Response Not fulfilled

### Prompt Determine whether measured interaction score meets or exceeds -0.2 for DEIAALEAKIAALKAENAALEAEIAALEG [4H337-AA]
### Response Not fulfilled

### Prompt Hi, just wondering whether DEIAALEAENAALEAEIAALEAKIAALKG [4H134-AA] shows interaction score of -0.2 or higher.
### Response Fulfilled

### Prompt Please indicate if the recorded interaction score for DKIAALKAKIAALKAKNAALEAKNAALEG [4H2935-AA] meets or exceeds -0.2.
### Response Not fulfilled

### Prompt Quick check, interaction score >= -0.2? DKIAALKAEIAALEAKNAALEAKIAALKG [4H2614-AA]
### Response Fulfilled
